tgt: caspase-8 (Homo sapiens, UniProt Q14790)
Construct: p10 and p20 subunits (Thornberry, N. A. et al, Nature, 1992, 356, 768) were expressed in E. coli; made in house; host or cells: E. coli
Sequence (Q14790 217-374 limits assumed, species assumed): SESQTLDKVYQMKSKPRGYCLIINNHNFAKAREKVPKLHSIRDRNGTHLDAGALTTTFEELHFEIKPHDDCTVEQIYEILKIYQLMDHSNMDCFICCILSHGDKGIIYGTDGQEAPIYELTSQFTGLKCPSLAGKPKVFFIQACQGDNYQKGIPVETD
Sequence (Q14790 385-479 limits assumed, species assumed): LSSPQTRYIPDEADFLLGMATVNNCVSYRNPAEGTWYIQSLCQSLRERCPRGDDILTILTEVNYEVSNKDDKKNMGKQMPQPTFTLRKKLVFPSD
test: Assay for the caspase inhibitory effect (fluorescent substrate AcDEVD-AFC)
Format: biochemical
assay-conditions: pH 7.5; 2.1 nM caspase-8, 50 μM AcDEVD-AFC, 25° C., pH 7.50; read-out: Caspase-8 Kobs/[I] (converted)
Procedure: Caspase-1 and caspase-8 known as cysteine proteases in the form of α2β2 were expressed, purified, and activated by modifying a method known in Thornberry, N. A. et al, Nature, 1992, 356, 768; Thornberry, N. A. Methods in Enzymology, 1994, 244, 615; Walker, N. P. C. et al. Cell, 1994, 78, 343, and caspase-9 was also purified by a similar method, and the inhibitory activity against them was tested. […] Ki was calculated from the Lineweaver Burk Plot, and Kobs from the following Equation 1. […]
outcome-measure: kinact/KI (M⁻¹ s⁻¹)
Your answer should be a plain number; it is taken to be in M⁻¹ s⁻¹.

- CCC(C(=O)N[C@@H](CC(=O)O)C(=O)COc1c(F)c(F)cc(F)c1F)n1nc(C)cc(Cc2ccccc2C(C)(C)C)c1=O (stereo partly drawn) [Example 2]: 33300

## Input Look up kinact/KI for this molecule: CCC(C(=O)N[C@@H](CC(=O)O)C(=O)COc1c(F)c(F)cc(F)c1F)n1nccc(Cc2ccccc2C(C)(C)C)c1=O (stereo partly drawn) [Example 5]
## Output 33300

## Input Please do the same for CCC(C(=O)N[C@@H](CC(=O)O)C(=O)COc1c(F)c(F)cc(F)c1F)n1nc(Cc2ccccc2C(C)(C)C)ccc1=O (stereo partly drawn) [Example 6] as well.
## Output 2830

## Input Please do the same for CCC(C(=O)NC(CC(=O)O)C(=O)CF)n1nc(C)cc(Cc2ccccc2C(C)(C)C)c1=O (stereo not drawn) [Example 1] as well.
## Output 91700

## Input Please do the same for Cc1cc(Cc2ccccc2C(C)(C)C)c(=O)n(C(C)C(=O)N[C@@H](CC(=O)O)C(=O)COc2c(F)c(F)cc(F)c2F)n1 (stereo partly drawn) [Example 3] as well.
## Output 6670

## Input Please do the same for Cc1cc(Cc2ccccc2C(C)(C)C)c(=O)n(CC(=O)N[C@@H](CC(=O)O)C(=O)COc2c(F)c(F)cc(F)c2F)n1 [Example 4] as well.
## Output 3330
